# Lookup of reported pKD keyed by entry
experimental target: SARS-CoV-2 Spike RBD, XBB.1.5 strain (SARS-CoV-2, Omicron XBB.1.5, strain)
assay explanation: SPR

Worked examples, 2 binders total:
binder="Inverse folding design from the DXP-604 starting point (Table 5, design row 3, the 5th table, row 6) (antibody, V domains shown) VH: EVQLVESGGGLIQPGGSLRLSCAASGIIVSRNYMTWVRQAPGKGLEWVSVIYSGGSTFYADSVKGRFTISRDNSKNTLYLQMSSLRAEDTAVYYCARDLGPYGMDVWGQGTTVTVSS VL: DIQLTQSPSFLSASVGDRVTITCRASQGISSDLAWYQQKPGKAPNLLIYAASTLQSGVPSRFSGSGSGTEFTLTISSLQPEDFATYYCQQLNDLLYTFGQGTKLEIK" assay_value="6.01 -log10(KD)"
binder="Inverse folding design from the DXP-604 starting point (Table 5, design row 1, the 5th table, row 4) (antibody, V domains shown) VH: EVQLVESGGGLIQPGGSLRLSCAASGIIVSRNYMTWVRQAPGKGLEWVSVIYSGGSTFYADSVKGRFTISRDNSKNTLYLQMSSLRAEDTAVYYCARDLGPYGMDVWGQGTTVTVSS VL: DIQLTQSPSFLSASVGDRVTITCRASQGISSDLAWYQQKPGKAPNLLIYAASTLQSGVPSRFSGSGSGTEFTLTISSLQPEDFATYYCQQLMDTLYTFGQGTKLEIK" assay_value="6.33 -log10(KD)"

Memo: Inverse folding design from the DXP-604 starting point (Table 5, design row 2, the 5th table, row 5) (antibody, V domains shown) VH: EVQLVESGGGLIQPGGSLRLSCAASGIIVSRNYMTWVRQAPGKGLEWVSVIYSGGTTFYADSVKGRFTISRDNSKNTLYLQMSSLRAEDTAVYYCARDLAVYGMDVWGQGTTVTVSS VL: DIQLTQSPSFLSASVGDRVTITCRASQGIGSDLAWYQQKPGKAPNLLIYAASTLQSGVPSRFSGSGSGTEFTLTISSLQPEDFATYYCQQLNSDLYTFGQGTKLEIK , reported pKD: 6.15 -log10(KD)

Memo: Inverse folding design from the DXP-604 starting point (Table 5, design row 7, the 5th table, row 10) (antibody, V domains shown) VH: EVQLVESGGGLIQPGGSLRLSCAASGIIVSRNYMTWVRQAPGKGLEWVSVIYSGGSTFYADSVKGRFTISRDNSKNTLYLQMSSLRAEDTAVYYCARDLGPYGMDVWGQGTTVTVSS VL: DIQLTQSPSFLSASVGDRVTITCRASQGISSDLAWYQQKPGKAPNLLIYAASTLQSGVPSRFSGSGSGTEFTLTISSLQPEDFATYYCQQLNSDLYTFGQGTKLEIK , reported pKD: 6.07 -log10(KD)

Memo: Inverse folding design from the DXP-604 starting point (Table 5, design row 4, the 5th table, row 7) (antibody, V domains shown) VH: EVQLVESGGGLIQPGGSLRLSCAASGIIVSRNYMTWVRQAPGKGLEWVSVIYSGGTTFYADSVKGRFTISRDNSKNTLYLQMSSLRAEDTAVYYCARDLGPYGMDVWGQGTTVTVSS VL: DIQLTQSPSFLSASVGDRVTITCRASQGIGSDLAWYQQKPGKAPNLLIYAASTLQSGVPSRFSGSGSGTEFTLTISSLQPEDFATYYCQQLNSDLYTFGQGTKLEIK , reported pKD: 6.35 -log10(KD)

Memo: Inverse folding design from the DXP-604 starting point (Table 5, design row 6, the 5th table, row 9) (antibody, V domains shown) VH: EVQLVESGGGLIQPGGSLRLSCAASGIIVSRNYMTWVRQAPGKGLEWVSVIYSGGSTFYADSVKGRFTISRDNSKNTLYLQMSSLRAEDTAVYYCARDLGPYGMDVWGQGTTVTVSS VL: DIQLTQSPSFLSASVGDRVTITCRASQGIGSDLAWYQQKPGKAPNLLIYAASTLQSGVPSRFSGSGSGTEFTLTISSLQPEDFATYYCQQLNSDLYTFGQGTKLEIK , reported pKD: 6.28 -log10(KD)

Memo: Inverse folding design from the DXP-604 starting point (Table 5, design row 5, the 5th table, row 8) (antibody, V domains shown) VH: EVQLVESGGGLIQPGGSLRLSCAASGIIVSRNYMTWVRQAPGKGLEWVSVIYPGGSTFYADSVKGRFTISRDNSKNTLYLQMSSLRAEDTAVYYCARDLGVYGMDVWGQGTTVTVSS VL: DIQLTQSPSFLSASVGDRVTITCRASQGISSDLAWYQQKPGKAPNLLIYAASTLQSGVPSRFSGSGSGTEFTLTISSLQPEDFATYYCQQLNDYLYTFGQGTKLEIK , reported pKD: 6.33 -log10(KD)
